# System: RIPK5
# Construct: gene DSTYK
# conditionInfo: Compound Concentration (nM):1000;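 also: KINOMEscan scanMAX binding as percent activity remaining versus control; lower means stronger binding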
readoutType: Percent Control (%)
Please state the figure in %; there is no need to write the unit.

Would you please look over these solved cases?
>>> df
                                   compound  subjectoftest  observed
0  CC(C)COC(=O)c1ccc2c(c1)/C(=C/Nc1ccc(S(N)(=O)=O)cc1)C(=O)N2 [GW416981X]          RIPK5        48
1  Cl.O=C(Nc1ccc(Oc2ccc3[nH]c(NC(=O)c4ccccc4)nc3c2)cc1)Nc1cc(C(F)(F)F)ccc1F [GW709042A]          RIPK5       100
2  CCS(=O)(=O)c1ccc(OC)c(Nc2ncc(-c3cccc(F)c3)o2)c1 [GW621970X]          RIPK5       100

Lab note: measured Percent Control of COc1ccc(COc2ccc(Cc3cnc(N)nc3N)cc2OC)cc1 [GW632580X] was 97

Lab book: Percent Control of COc1cc(/C=N/Nc2ncnc3[nH]ncc23)ccc1O [GW578748X] noted as 75

====

# Tested on: CDK7
# conditionInfo: Compound Concentration (nM):1000
Parameter Percent Control: see the listing below.
Reply with just the number (in %).

# count of solved cases: 7
In [3]: df
Out[3]:
                                   molecule  subjectoftest  observed
0  CCn1c(-c2nonc2N)nc2c(C#CC(C)(C)O)nc(OCCNC)cc21.Cl           CDK7        88
1  CC1=C(C(=O)Nc2ccc3[nH]ncc3c2)C(c2ccc(Cl)c(Cl)c2)CC(=O)N1 (centres unmarked) [GSK299115A]           CDK7        83
2  CC1=C(C(=O)Nc2ccc3[nH]ncc3c2)C(c2ccc3ccccc3c2)CC(=O)N1 (centres unmarked) [GSK270822A]           CDK7        88
3  NS(=O)(=O)c1ccc(N/N=C2\C(=O)Nc3ccc(-c4cnco4)cc32)cc1           CDK7        32
4  Cl.O=C(Nc1ccc(Oc2ccc3[nH]c(NC(=O)c4ccccc4)nc3c2)cc1)Nc1cc(C(F)(F)F)ccc1F [GW709042A]           CDK7        32
5  NS(=O)(=O)c1ccc(N/N=C2\C(=O)Nc3ccc(C(=O)NCCc4c[nH]cn4)cc32)cc1 [GW300660X]           CDK7        33
6  NS(=O)(=O)c1ccc(N/N=C2\C(=O)Nc3ccc(C(=O)NCc4ccncc4)cc32)cc1 [GW300657X]           CDK7        13

Here is the next item to consider.
Summary line: Cl.O=C(O[C@H]1CN[C@H](C#Cc2cc3ncnc(Nc4ccc5c(cnn5Cc5ccccc5)c4)c3s2)C1)N1CCOCC1 [GSK200398A] , CDK7, reported Percent Control = 78

====

Reported Percent Control values for the following compounds.
# Test system: MET
# conditionInfo: Compound Concentration (nM):1000
Number plus unit, in that order.

Some compounds with known Percent Control results, for comparison:
>>> df
                                   compound  observed
0  Cl.c1ccc(Cc2nc3ccc(Nc4ncnc5ccccc45)cc3[nH]2)cc1 [GR269666A]      100%
1  NS(=O)(=O)c1ccc(N/N=C2\C(=O)Nc3ccc(-c4cnco4)cc32)cc1       94%
2  COc1cc2ncnc(Nc3ccc4c(cnn4Cc4ccccc4)c3)c2cc1OC.Cl [GW282449A]      100%
3  O=C1Nc2ccc(C(=O)c3ccco3)cc2C1=Cc1cc(Cl)c(O)c(Cl)c1 [GW406108X]       67%
4  C/C(Nc1ccc(S(N)(=O)=O)cc1)=C1/C(=O)Nc2ccccc21 [GW335962X]       72%
5  CC1=C(C(=O)Nc2ccc3[nH]ncc3c2)C(c2ccc(Cl)c(Cl)c2)CC(=O)N1 (centres unmarked) [GSK299115A]       97%
6  Cl.O=S1CCN(Cc2ccc(-c3ccc4ncnc(Nc5ccc(OCc6ccccc6)c(F)c5)c4c3)o2)CC1 [GW576924A]      100%
7  COc1ccc2cc(-c3c(-c4ccncc4)nc(-c4ccc(S(C)(=O)=O)cc4C)n3C)ccc2c1       80%

Log: MET, compound COc1cc(/C=N/Nc2ncnc3[nH]ncc23)ccc1O [GW578748X] , Percent Control = 100%

The compound C[C@@H](Oc1cc(-n2cnc3ccc(OC4CCN(C)CC4)cc32)sc1C(N)=O)c1ccccc1Cl [GSK579289A] , when measured on MET, yielded Percent Control of 58%

// returns Percent Control for COc1cc(C)c(N(C)C(=O)CN(C)C)cc1Nc1nc(Nc2cccc(F)c2C(N)=O)c2cc[nH]c2n1 with MET; value = 65%

Given the compound COc1cccc(-n2ncc3c(N/N=C/c4ccncc4)ncnc32)c1 [GW784752X] and test system MET, the measured Percent Control is 91%

Entry NS(=O)(=O)c1ccc(N/N=C2\C(=O)Nc3ccc(Cl)cc32)cc1 [GW280670X] under MET had Percent Control of 100%
